studySystem: Tyrosine-protein phosphatase non-receptor type 7 (Homo sapiens, UniProt P35236)
Sequence (P35236 whole entry): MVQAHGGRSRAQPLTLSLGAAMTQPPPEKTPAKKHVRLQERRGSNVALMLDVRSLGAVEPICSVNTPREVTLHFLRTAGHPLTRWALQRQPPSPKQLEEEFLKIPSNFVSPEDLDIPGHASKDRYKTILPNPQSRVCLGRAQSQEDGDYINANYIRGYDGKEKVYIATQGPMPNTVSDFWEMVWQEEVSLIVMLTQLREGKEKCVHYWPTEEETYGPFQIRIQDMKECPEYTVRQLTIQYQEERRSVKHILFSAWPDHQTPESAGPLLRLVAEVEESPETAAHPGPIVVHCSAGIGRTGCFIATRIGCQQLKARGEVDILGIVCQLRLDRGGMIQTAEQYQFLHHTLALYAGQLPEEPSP
Listed here are molecules together with their documented pIC50.
Keep it numeric: pIC50 is minus log10 of the concentration in mol/L.

| chemSmiles | pIC50 |
| --- | --- |
| COc1ccc(-c2oc3cc(O)c(C(=O)O)cc3c2-c2cn(CCCC(=O)Nc3cccc4ccccc34)nn2)cc1 | 5.43 |
| COc1ccc2nc(NC(=O)CCCn3cc(-c4c(-c5cccc(C)c5)oc5cc(O)c(C(=O)O)cc45)nn3)sc2c1 | 5.20 |
| Cc1ccc(-c2oc3cc(O)c(C(=O)O)cc3c2-c2cn(CCCC(=O)Nc3ccc(Cl)c4ccccc34)nn2)cc1 | 5.43 |

stdin: Which value of pIC50 has been reported for `Cc1ccc(-c2oc3cc(O)c(C(=O)O)cc3c2-c2cn(CCCC(=O)Nc3cccc4ccccc34)nn2)cc1` in the records?
stdout: 5.39

stdin: Can you share its pIC50? I mean this molecule: `COC(=O)c1cc2c(-c3cn(CCCC(=O)Nc4ccc(Cl)c5ccccc45)nn3)c(-c3ccccc3)oc2cc1O`
stdout: 4.49

====

Consider the following IC50 values measured on Receptor-type tyrosine-protein phosphatase F (Homo sapiens, UniProt P10586).
Sequence (P10586 whole entry): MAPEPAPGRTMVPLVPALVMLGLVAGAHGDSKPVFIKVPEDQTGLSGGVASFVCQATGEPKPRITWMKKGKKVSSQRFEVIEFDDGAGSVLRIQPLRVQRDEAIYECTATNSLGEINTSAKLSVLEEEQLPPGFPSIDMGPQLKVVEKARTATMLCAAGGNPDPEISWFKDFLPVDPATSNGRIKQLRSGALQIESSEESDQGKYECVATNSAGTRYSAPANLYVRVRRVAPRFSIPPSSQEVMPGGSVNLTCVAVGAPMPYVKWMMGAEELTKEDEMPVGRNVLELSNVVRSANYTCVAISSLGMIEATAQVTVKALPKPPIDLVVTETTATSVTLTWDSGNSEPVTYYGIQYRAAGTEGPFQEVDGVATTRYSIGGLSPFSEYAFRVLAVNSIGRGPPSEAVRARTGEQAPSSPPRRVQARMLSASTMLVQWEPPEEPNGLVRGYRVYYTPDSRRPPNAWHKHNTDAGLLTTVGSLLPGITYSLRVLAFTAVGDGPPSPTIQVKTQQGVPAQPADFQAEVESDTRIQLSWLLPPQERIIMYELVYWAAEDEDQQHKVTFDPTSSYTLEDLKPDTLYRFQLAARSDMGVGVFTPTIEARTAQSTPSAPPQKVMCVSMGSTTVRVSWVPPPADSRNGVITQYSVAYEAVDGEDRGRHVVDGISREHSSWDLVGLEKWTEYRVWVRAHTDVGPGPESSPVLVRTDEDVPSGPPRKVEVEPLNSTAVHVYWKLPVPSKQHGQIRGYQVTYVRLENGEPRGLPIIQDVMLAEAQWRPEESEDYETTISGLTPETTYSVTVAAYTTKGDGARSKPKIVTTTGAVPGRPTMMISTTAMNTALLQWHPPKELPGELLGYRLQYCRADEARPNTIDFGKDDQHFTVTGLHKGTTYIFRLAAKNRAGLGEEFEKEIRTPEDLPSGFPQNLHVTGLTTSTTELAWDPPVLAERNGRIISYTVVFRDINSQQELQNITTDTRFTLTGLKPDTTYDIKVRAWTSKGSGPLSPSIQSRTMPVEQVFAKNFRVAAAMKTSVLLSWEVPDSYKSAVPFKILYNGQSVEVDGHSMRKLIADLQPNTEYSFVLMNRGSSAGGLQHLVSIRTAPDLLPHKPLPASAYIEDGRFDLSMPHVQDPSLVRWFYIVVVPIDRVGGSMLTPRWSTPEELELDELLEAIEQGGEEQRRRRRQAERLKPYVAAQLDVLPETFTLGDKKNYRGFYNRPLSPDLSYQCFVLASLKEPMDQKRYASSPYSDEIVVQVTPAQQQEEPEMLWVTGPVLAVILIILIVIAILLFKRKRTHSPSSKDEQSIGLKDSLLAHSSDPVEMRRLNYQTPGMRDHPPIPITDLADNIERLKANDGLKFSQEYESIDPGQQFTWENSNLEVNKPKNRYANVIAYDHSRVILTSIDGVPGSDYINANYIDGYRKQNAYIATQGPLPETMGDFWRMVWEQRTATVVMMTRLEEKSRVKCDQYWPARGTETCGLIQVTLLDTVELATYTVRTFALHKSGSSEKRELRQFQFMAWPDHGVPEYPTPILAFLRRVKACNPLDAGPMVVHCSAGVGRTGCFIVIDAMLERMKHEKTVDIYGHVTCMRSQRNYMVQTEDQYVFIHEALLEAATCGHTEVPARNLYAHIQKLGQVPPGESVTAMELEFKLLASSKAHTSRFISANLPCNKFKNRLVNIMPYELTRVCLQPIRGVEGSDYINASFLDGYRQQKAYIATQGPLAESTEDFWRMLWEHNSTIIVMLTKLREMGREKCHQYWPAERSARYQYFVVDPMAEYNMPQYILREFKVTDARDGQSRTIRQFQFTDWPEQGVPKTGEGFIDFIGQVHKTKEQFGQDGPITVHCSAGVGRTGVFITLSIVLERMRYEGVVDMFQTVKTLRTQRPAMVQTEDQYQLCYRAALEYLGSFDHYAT
The response must be a number in µM with no trailing unit.

| chemSmiles | observable | reportedMeasurement |
| --- | --- | --- |
| Cc1ccc(-c2oc3cc(O)c(C(=O)O)cc3c2-c2cn(CCCC(=O)Nc3cccc4ccccc34)nn2)cc1 | IC50 | 36.1 |
| COc1ccc(-c2oc3cc(O)c(C(=O)O)cc3c2-c2cn(CCCC(=O)Nc3cccc4ccccc34)nn2)cc1 | IC50 | 25.5 |
| COC(=O)c1cc2c(-c3cn(CCCC(=O)Nc4ccc(Cl)c5ccccc45)nn3)c(-c3ccccc3)oc2cc1O | IC50 | 44.4 |

stdin: # get_value(readout= IC50, system= Receptor-type tyrosine-protein phosphatase F (Homo sapiens, UniProt P10586)) for `COc1ccc2nc(NC(=O)CCCn3cc(-c4c(-c5cccc(C)c5)oc5cc(O)c(C(=O)O)cc45)nn3)sc2c1`
stdout: 39.9

stdin: GET /values?readout=IC50&system=Receptor-type tyrosine-protein phosphatase F (Homo sapiens, UniProt P10586)&item= `Cc1ccc(-c2oc3cc(O)c(C(=O)O)cc3c2-c2cn(CCCC(=O)Nc3ccc(Cl)c4ccccc34)nn2)cc1`
stdout: 23.7

====

studySystem: Tyrosine-protein phosphatase non-receptor type 1 (Homo sapiens, UniProt P18031)
Sequence (P18031 whole entry): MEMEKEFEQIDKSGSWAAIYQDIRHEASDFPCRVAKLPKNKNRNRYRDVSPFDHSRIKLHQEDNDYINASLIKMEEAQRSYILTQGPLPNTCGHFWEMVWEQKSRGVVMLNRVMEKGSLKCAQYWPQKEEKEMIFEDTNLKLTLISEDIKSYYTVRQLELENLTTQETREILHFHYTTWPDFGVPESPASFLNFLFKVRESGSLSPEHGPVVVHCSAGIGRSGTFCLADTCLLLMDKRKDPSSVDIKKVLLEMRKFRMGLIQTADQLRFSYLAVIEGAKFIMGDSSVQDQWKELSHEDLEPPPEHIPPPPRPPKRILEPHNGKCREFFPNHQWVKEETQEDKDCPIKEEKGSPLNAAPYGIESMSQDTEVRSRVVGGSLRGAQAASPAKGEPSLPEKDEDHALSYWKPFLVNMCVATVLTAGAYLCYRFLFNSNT
assayExplanation: Inhibition of PTP1B
IC50 overview
Dear colleague, please return just the value in nM, with no unit written.

| chemSmiles | IC50 (nM) |
| --- | --- |
| COc1ccc(-c2oc3cc(O)c(C(=O)O)cc3c2-c2cn(CCCC(=O)Nc3cccc4ccccc34)nn2)cc1 | 190 |
| Cc1ccc(-c2oc3cc(O)c(C(=O)O)cc3c2-c2cn(CCCC(=O)Nc3ccc(Cl)c4ccccc34)nn2)cc1 | 205 |

stdin: Consider the molecule shown here: `COC(=O)c1cc2c(-c3cn(CCCC(=O)Nc4ccc(Cl)c5ccccc45)nn3)c(-c3ccccc3)oc2cc1O` What is its recorded IC50?
stdout: 11500

stdin: What value of IC50 has been reported for the following molecule? `Cc1ccc(-c2oc3cc(O)c(C(=O)O)cc3c2-c2cn(CCCC(=O)Nc3cccc4ccccc34)nn2)cc1`
stdout: 214

stdin: Recorded IC50 for `COc1ccc2nc(NC(=O)CCCn3cc(-c4c(-c5cccc(C)c5)oc5cc(O)c(C(=O)O)cc45)nn3)sc2c1` , please?
stdout: 217
